Experiment: label from the status in PepcDB records
METRIC NAME: protein production

MDSGTINIKKWVVIYPVYINSKKTVAEGRRISVSKSCENPNCIEISDCCKHLKLPSAVEIDKAYPRDFMQVGRVRVQLKREDGTLLNPAITSRKHLMQKIAELVPRHPERVKKQEAQKAKKQEPQATTSTSGTSSKSGKGGKKKR :: failed
TTAKPQQIQALMDEVTKQGNIVRELKAQKADKNEVAAEVAKLLDLKKQLAVAEGKPPEAPKGKKKK :: not failed
VLIIPGGGYRRIVYEREGLDVGRWIAGQGYTAFILSYRMPSVNGYYSFADAKNALNFISYWAGMSERTFKSVGCMGFSAGGHLAGYITHLHYEEETSVRPDWMALIYPVISLDRSIAHQGCRKRLLDAGESEYSASLENSVTEYMPPVFIVHATDDKDVPVIHSLRYFNSIRDKGHHAEAHFFDKGGHGFGVSGKNGYPIEKWQSLLLEWLAEH :: failed
MVKIAASILACDLARLADEVKRVEEHVDMIHFDVMDGHFVPNISFGLPVLKALRKETKLPISVHLMITNPEDYIDRFIEEGADMVAIHYESTFHLHRLVHRVKDLGARAFVAINPHTPINLLSEIITDVDGVLVMSVNPGFSGQRFIARSLEKIRNLRKMVKELGLETEIMVDGGVNEENASILVKNGATILVMGYGIFRNDNYVELIKSIKQEREEFAD :: not failed
MAILFAVVARGTTILAKHAWCGGNFLEVTEQILAKIPSENNKLTYSHGNYLFHYICQDRIVYLCITDDDFERSRAFNFLNEIKKRFQTTYGSRAQTAPPYAMNSEFSSVLAAQLKHHS :: not failed

Given MFIKGVILSSYGVNGYARVKSISNNFCDFINLKNNKVLLKKSNSSSVEVKVVDVNIKGNSLFLKFEEIDTPEAVRPLIGFELWVDDSLASSLKEGEYYLGKLIGYAIVNNNKKLGEVVAFFEYLNSVFLEVRVGIKFFFIPFLSIYIGDINTQEKTIELKVLDLLKLEHHHHHH , state its recorded protein production.
failed

Given MISSLSASSSLVSSFVAVKATPVTGPLIPRRDLLSIRIRASSNQNSSGYCFPEKFKSFAKSAILIGAAVSMTGKFSTLPVKAESPVTTIEKTYEEVKEEKLSEITPLSELLDSTPEAVETLRSLLQQKLEKGEDEEALKLLERLVAAQPEETEWKFLMARLLGEMGRPENARQMFEEILQRNPLSFEALFENALLMDRSGEGNAVLQRLEDALAVAEAEYLVKEARDVRLIIAQIHFLQKNVDEALKSYEQLTKEDPKDFRPYFCRGMIYSLLDKNVEAKEQFAKYRELSPKKFEVEGYLRTPLSKMKLFGGSEEN , state its recorded protein production.
failed

Given MNTIKLKKNALFNPEGDTDLRHRRMIGGNTTNLNDFNNMRYKWVSDWYRQAMNNFWIPEEINLTQDTKDYPHLDQAERTAYDKILSFLVFLDSLQSNNLPTISEYITANEVNLCLHIQAFQECVHSQSYSYMLDSICSPEKRNEILYQWKTDGHLLKRNTFIGNCYNEFQESQDGFTLMKTLIANYILEGIYFYSGFMFFYNLSRNGKMSGSAQEIRYINRDENTHLWLFRNIILELKKEEPDLFTPDKVKIYEYMMREGVKQEIEWGQYVIGDNIQGLNRKMIEDYIQYLGNLRWSSLGFGPLYEENHKEPESMHWVSQYSNANMVKTDFFEAKSTAYAKSTALEDDL , state its recorded protein production.
failed
